Property: melting point

COc1ccc(C(=O)Nc2ccccc2)c(C)c1: 149 to 150 °C
CCOc1nc2nc(SC)nn2c2c1cnc1c2cnn1CC: 209 to 211 °C
Brc1cccc(OCc2ccc3ccccc3n2)c1: 79 to 81 °C

Give measured melting point for every item shown.
1. COc1cc(S(C)(=O)=O)ccc1OCc1ccc(C2CCN(C(=O)OC(C)(C)C)CC2)cn1
2. COC(C)c1nc(C(C)(C)O)c(C(=O)O)n1Cc1ccc(-c2ccccc2-c2nnn[nH]2)cc1 (stereo not given)
3. CC(C)(C)C1=CC(=Nc2ccc(CC#N)cc2)C=C(C(C)(C)C)C1=O
4. O=C(c1sccc1-n1cccc1)N1CCOCC1
5. O=C(NC(CC1CCCC1)C(=O)NC1CCCN(C(=O)c2ccccc2)CC1=O)c1ccco1 (stereo not given)

1. 135 to 138 °C
2. 174 to 185 °C
3. 126 to 128 °C
4. 100 °C
5. 97 to 100 °C

Give measured melting point for every item shown.
1. COc1cc(OC)c(-c2cc3ccccc3n2C)cc1C=CC(=O)c1ccc(S(=O)(=O)NO[Si](C)(C)C(C)(C)C)cc1
2. CCOC(=O)c1ncc2[nH]c3ccc(C4CCCCC4)cc3c2c1C
3. O=C(O)[C@H](Cc1cccc(OCC(F)(F)C(F)F)c1)[C@@H](O)c1ccc(F)cc1 (racemic)
4. FC(F)(F)c1cccc(Nc2nccc(-c3cccnc3)n2)c1
5. CC(C)(C)c1ccc(-c2nnc(-c3ccc(C(=O)O)cc3)o2)cc1
6. CC(=O)OC1CCC2C3C(Sc4ccc(Br)cc4)C(=O)c4cc(O)ccc4C3CCC12C (stereo not given)
7. CCN1CC2CCCC2C1CNC(=O)c1cc(Cl)c(NC(C)=O)cc1OC (stereo not given)

["129 to 131 °C", "191 to 193 °C", "114 to 115 °C", "170 to 171 °C", "284 to 286 °C", "190 to 192 °C", "156 to 157 °C"]

Give measured melting point for every item shown.
1. O=C(N[C@@H](Cc1c[nH]c2ccccc12)C(=O)O)c1ccccc1
2. N#Cc1ccc(C(Cc2ccc(C(F)(F)F)cn2)Cn2cncn2)cc1 (stereo not given)
3. CC(C)(C)OC(=O)N1CCCN(c2ccncc2)CC1

["84 to 86 °C", "78 °C", "124 to 129 °C"]

Give measured melting point for every item shown.
1. C[C@H]1CCCC(C)(C)[C@@H]1C(=O)c1ccc(C#N)c(C(F)(F)F)c1
2. O=C(O)COc1ccc2c(-c3ccccc3)noc2c1Cl

81.6 to 82.4 °C
219 to 221 °C

* * *

Hi there, I'd appreciate the recorded melting point for every entry that follows.

S=C(NCCCCN(Cc1ccc(Cl)c(Cl)c1)c1ccc(Br)cn1)NCCCn1ccnc1: 139 to 141 °C
COc1cc(-c2cccc(Cl)c2)c2cc(C(O)(c3ccc(Cl)cc3)c3nnc(S)n3C)ccc2n1 (stereo not drawn): > 260 °C
Cc1cc(C)nc(NC(=O)NS(=O)(=O)C2CCCCCCCCCCC2Cl)n1 (stereo not drawn): 84 °C
COc1ccc(Nc2ncc3cc(-c4c(Cl)cccc4Cl)c(=O)n(C)c3n2)cc1C: 218 to 220 °C
CCNc1nc(-c2ccc(NC(=O)NCc3cccnc3)cc2)ccc1C(=O)O: 216 to 218 °C
CCCc1c(O)c(C(C)=O)cc(Cl)c1OCCCOc1c(C(C)=O)ccc(OCC(=O)O)c1CCC: 119 to 121 °C

Give measured melting point for every item shown.
1. COC(=O)Cc1ccc(OCCNC(=O)C2Cc3ccccc3N2S(=O)(=O)c2ccc(-c3cc(C(F)(F)F)ccc3Cl)cc2)c(OC)c1 (stereo not drawn)
2. CC(C)n1nc(-c2c(-c3ccccc3)nn3ccc(OCCN4C[C@@H](C)O[C@@H](C)C4)cc23)ccc1=O

1: 51 to 58 °C; 2: 158 °C

Entry source: a melting point compilation (Tetko et al.; mined from patent text by program, amines drawn as free bases though some values may be those of a salt)
